Overview of reported interaction score across a group of binders:
Molecular target: T1, 4H342-AA
T1 chain: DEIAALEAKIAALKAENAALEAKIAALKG
Experiment: two-hybrid library CCmax;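 further: natural log of median RNA to DNA barcode read ratio; higher means stronger binding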
Conditions: mean of both orientations
When you answer, write just the number.

For orientation, consider the following solved cases.
DKIAALEAKIAALKAENAALKAEIAALEG [4H2393-AA] = 2.37
DKIAALKAEIAALEAEIAALKAKNAALEG [4H2575-AA] = 1.14
DENAALKAEIAALEAEIAALKAKNAALKG [4H1552-AA] = -0.367
DENAALEAEIAALKAKIAALKAKNAALEG [4H1135-AA] = -1.17

Prompt line: What value of interaction score has been recorded for this entry: DKIAALKAKIAALKAEIAALEAENAALEG [4H2883-AA]
Response line: -0.29

Prompt line: Further, for DKIAALKAENAALKAEIAALEAEIAALKG [4H2754-AA] ?
Response line: 0.684

Prompt line: Further, for DEIAALEAKIAALKAEIAALKAKNAALEG [4H335-AA] ?
Response line: -0.154
